Entry source: paper PMC7058304

# test_system: T1, Recombinant purified human PD-1 protein, residues Leu25-Thr168, with a C-terminal 6-His tag (Homo sapiens, UniProt Q15116)
# T1 construct: programmed cell death protein 1 (PD-1), human, residues Leu25-Thr168; also called programmed cell death protein 1; PD-1-His monomer; source: bought: R&D Systems (catalog# 8986-PD, lot# DDJM0417041)
# T1 sequence (Q15116 25-168): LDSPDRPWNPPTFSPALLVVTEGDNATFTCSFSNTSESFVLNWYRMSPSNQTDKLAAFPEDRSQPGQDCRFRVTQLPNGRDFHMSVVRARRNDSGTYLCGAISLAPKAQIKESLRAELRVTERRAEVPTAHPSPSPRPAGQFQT
# protocol_notes: SPR; Biacore 8K, CMD-P chip (flat); mAb captured on amine-coupled goat anti-human IgG Fc, PD-1-His monomer as analyte (100 nM top, 3-fold dilutions), 1200 s dissociation; 25 C, HBS-EP+ pH 7.4; 1:1 Langmuir fit, apparent constants
# details: both partners purified
In plain terms, low Kd, meaning strictly below 0.9 nM, gives class 1, and everything else gives class 0.

{"binder": "mAb16 (antibody, V domains shown, IgG4; also called analog of dostarlimab; dostar; source: HEK293 suspension cells, cotransfected, purified (Protein A)) VH: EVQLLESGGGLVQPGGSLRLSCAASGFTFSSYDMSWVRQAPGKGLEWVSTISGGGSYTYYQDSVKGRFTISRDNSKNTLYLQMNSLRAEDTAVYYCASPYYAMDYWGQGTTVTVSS VL: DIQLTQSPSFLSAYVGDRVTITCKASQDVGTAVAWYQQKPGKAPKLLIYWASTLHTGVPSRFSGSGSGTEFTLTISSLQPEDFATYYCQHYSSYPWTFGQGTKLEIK", "category": "class 0"}
{"binder": "mAb04 (antibody, V domains shown, IgG4; also called analog of retifanlimab; retifan; source: HEK293 suspension cells, cotransfected, purified (Protein A)) VH: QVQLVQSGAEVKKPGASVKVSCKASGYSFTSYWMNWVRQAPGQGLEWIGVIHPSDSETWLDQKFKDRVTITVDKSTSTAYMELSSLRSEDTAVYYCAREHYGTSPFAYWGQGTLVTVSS VL: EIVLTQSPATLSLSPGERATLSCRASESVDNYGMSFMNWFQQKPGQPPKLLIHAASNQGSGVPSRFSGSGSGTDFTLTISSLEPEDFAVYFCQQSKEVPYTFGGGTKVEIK", "category": "class 1"}
{"binder": "mAb17 (antibody, V domains shown, IgG4; also called analog of camrelizumab; camre; source: HEK293 suspension cells, cotransfected, purified (Protein A)) VH: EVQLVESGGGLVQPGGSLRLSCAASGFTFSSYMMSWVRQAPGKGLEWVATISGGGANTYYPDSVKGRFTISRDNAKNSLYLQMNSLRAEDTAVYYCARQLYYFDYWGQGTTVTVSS VL: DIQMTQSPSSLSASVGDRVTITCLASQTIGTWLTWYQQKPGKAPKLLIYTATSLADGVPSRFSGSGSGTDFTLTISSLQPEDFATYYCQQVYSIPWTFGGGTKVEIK", "category": "class 0"}
{"binder": "mAb03 (antibody, V domains shown, IgG4; also called analog of tislelizumab; tisle; source: HEK293 suspension cells, cotransfected, purified (Protein A)) VH: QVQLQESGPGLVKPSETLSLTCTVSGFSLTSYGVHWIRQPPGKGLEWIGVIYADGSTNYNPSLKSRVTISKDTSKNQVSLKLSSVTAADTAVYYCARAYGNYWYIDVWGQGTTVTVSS VL: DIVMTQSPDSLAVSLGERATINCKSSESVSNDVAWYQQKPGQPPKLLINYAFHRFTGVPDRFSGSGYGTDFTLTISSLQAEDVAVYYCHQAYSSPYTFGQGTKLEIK", "category": "class 1"}
